- Species on record: Rattus norvegicus
- Experimental protocol: DrugMatrix - Regimen: Daily Repeat
- Assay type: toxicity, organism-based, Sprague-Dawley
- Parameters: regimen Daily Repeat, gender Male, age 6-8 weeks
- Assay setup: in vivo, po, 1500 mg/kg, 72 h, tissue Blood, route oral GAVAGE, dose level High, time 3 day, vehicle .5 % CMC
Measure name: MONOCYTE (%)
Report as a plain number; the unit % is understood.

Query CC[C@H]1OC(=O)[C@H](C)[C@@H](O[C@H]2C[C@@](C)(OC)[C@@H](O)[C@H](C)O2)[C@H](C)[C@@H](O[C@@H]2O[C@H](C)C[C@H](N(C)C)[C@H]2O)[C@](C)(O)C[C@@H](C)C(=O)[C@H](C)[C@@H](O)[C@]1(C)O [ERYTHROMYCIN] yields MONOCYTE of 0.67

Query O=C(O)CCc1nc(-c2ccccc2)c(-c2ccccc2)o1 [OXAPROZIN] yields MONOCYTE of 2.67

Query COc1ccc(Cl)cc1C(=O)NCCc1ccc(S(=O)(=O)NC(=O)NC2CCCCC2)cc1 [GLYBURIDE] yields MONOCYTE of 1

Query Cc1ccc(S(=O)(=O)NC(=O)NN2CCCCCC2)cc1 [TOLAZAMIDE] yields MONOCYTE of 2.33

Query COc1cc(/C=C/C(=O)O)ccc1O [FERULATE] yields MONOCYTE of 2.67

###

- Species on record: Rattus norvegicus
- Experimental protocol: DrugMatrix - Regimen: Daily Repeat
- Type: toxicity, organism-based, Sprague-Dawley
- Design: regimen Daily Repeat, gender Male, age 6-8 weeks
- Assay setup: in vivo, po, 0 mg/kg, 120 h, tissue Blood, route oral GAVAGE, dose level Control, time 5 day, […]
For each of the molecules below, state its EOSINOPHIL.
Report as a plain number; the unit % is understood.

Query CCOC(=O)C1=C(C)NC(C)=C(C(=O)OCC)C1c1ccccc1/C=C/C(=O)OC(C)(C)C [LACIDIPINE] yields EOSINOPHIL of 0.17

Query Oc1ncnc2[nH]ncc12 [ALLOPURINOL] yields EOSINOPHIL of 0.33

Query CS(=O)(=O)c1ccc(C2=C(c3ccccc3)C(=O)OC2)cc1 [ROFECOXIB] yields EOSINOPHIL of 0

Query CC(C)(c1ccc(O)cc1)c1ccc(O)cc1 [BISPHENOL A] yields EOSINOPHIL of 0.17

Query COc1ccccc1OCCNCC(O)COc1cccc2[nH]c3ccccc3c12 (stereo not drawn) [CARVEDILOL] yields EOSINOPHIL of 0

Query CC#C[C@]1(O)CC[C@H]2[C@@H]3CCC4=CC(=O)CCC4=C3[C@@H](c3ccc(N(C)C)cc3)C[C@@]21C [MIFEPRISTONE] yields EOSINOPHIL of 0.5

Query CCC(C)(C)C(=O)O[C@H]1C[C@@H](C)C=C2C=C[C@H](C)[C@H](CC[C@@H]3C[C@@H](O)CC(=O)O3)[C@H]21 [SIMVASTATIN] yields EOSINOPHIL of 0.5

Query O=C(O)COC(=O)Cc1ccccc1Nc1c(Cl)cccc1Cl [ACECLOFENAC] yields EOSINOPHIL of 0

###

- Species on record: Rattus norvegicus
- Experimental protocol: DrugMatrix - Regimen: Daily Repeat
- Format: toxicity, organism-based, Sprague-Dawley
- Parameters: regimen Daily Repeat, gender Male, age 6-8 weeks
- Assay setup: in vivo, po, 0 mg/kg, 72 h, tissue Blood, route oral GAVAGE, dose level Control, time 3 day, vehicle .5 % CMC
Measure name: LYMPHOCYTE (%)
Report as a plain number; the unit % is understood.

Query `Nc1ccc(C(=O)O)c(O)c1` yields LYMPHOCYTE of 87.5

Query `O=C1c2ccccc2C(=O)C1c1ccccc1` yields LYMPHOCYTE of 84.44

Query CCN(CC)CCNC(=O)c1cc(Cl)c(N)cc1OC [METOCLOPRAMIDE] yields LYMPHOCYTE of 81.4

Query `O=C(O)CCc1nc(-c2ccccc2)c(-c2ccccc2)o1` yields LYMPHOCYTE of 91.67

Query COc1cc(NC(C)CCCN)c2ncccc2c1 (stereo not given) yields LYMPHOCYTE of 84.8

Query `CCN1CCN(c2cc3c(cc2F)c(=O)c(C(=O)O)cn3C2CC2)CC1` yields LYMPHOCYTE of 81.4

Query COc1ccc(Cl)cc1C(=O)NCCc1ccc(S(=O)(=O)NC(=O)NC2CCCCC2)cc1 [GLYBURIDE] yields LYMPHOCYTE of 87.5

Query CN(C)CCC=C1c2ccccc2COc2ccccc21 [DOXEPIN] yields LYMPHOCYTE of 76

Query CCN1CCCC1CNC(=O)c1cc(S(N)(=O)=O)ccc1OC (stereo not given) [SULPIRIDE] yields LYMPHOCYTE of 91.67

Query CCOc1cc(N)c(Cl)cc1C(=O)NCC1CN(Cc2ccc(F)cc2)CCO1 (stereo not given) [MOSAPRIDE] yields LYMPHOCYTE of 90.17

Reference source for all entries: ChEMBL document CHEMBL3885881
